- assayed_target: T1, 4H319-bH
- T1 chain: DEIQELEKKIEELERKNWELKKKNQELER
- test: two-hybrid library CCNG1;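 note: natural log of median RNA to DNA barcode read ratio; higher means stronger binding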
reported_property: interaction score

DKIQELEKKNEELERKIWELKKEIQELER [4H2473-bH]: -1.01
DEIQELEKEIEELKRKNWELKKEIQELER [4H121-bH]: -1.11
DKIQELKKKIEELKRKIWELEKENQELER [4H2915-bH]: -1.33

Source listed as paper PMC10397247.
